# Target or system: Serine/threonine-protein kinase pim-2 (Homo sapiens, UniProt Q9P1W9)
# Sequence (Q9P1W9 whole entry): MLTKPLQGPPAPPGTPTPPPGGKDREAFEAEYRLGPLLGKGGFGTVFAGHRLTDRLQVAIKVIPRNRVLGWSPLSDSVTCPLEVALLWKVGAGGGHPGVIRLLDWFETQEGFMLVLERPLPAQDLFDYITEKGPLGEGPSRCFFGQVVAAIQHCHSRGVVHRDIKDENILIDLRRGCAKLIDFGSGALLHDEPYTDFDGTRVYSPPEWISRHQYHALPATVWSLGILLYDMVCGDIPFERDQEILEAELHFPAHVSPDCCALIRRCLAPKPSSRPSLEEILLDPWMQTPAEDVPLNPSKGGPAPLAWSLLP
Value kind: Ki (nM)
All answers are understood in nM, so give the number only.

Worked examples follow.
[[record]]
molecule = "Cc1n[nH]c2cnc(-c3cnccc3N3CCC[C@H](N)C3)cc12"
observed_measurement = 8300

[[record]]
molecule = "c1cncc(-c2cc3c(-c4cccc(N5CCNCC5)n4)n[nH]c3cn2)c1"
observed_measurement = 0.5

[[record]]
molecule = "Cc1n[nH]c2cnc(-c3cncc(N4CCC(N)CC4)n3)cc12"
observed_measurement = 170


Please turn your attention to the following entry.
Would you mind telling me what Ki value was observed for c1cc(-c2n[nH]c3cnc(C4CCCO4)cc23)nc(N2CCNCC2)c1 (centres undefined) ? 82
